Assay: NCI Yeast Anticancer Drug Screen. Data for the mec2-1 strain (AID 157)
Settings: S. cerevisiae mec2-1 strain, at 50.0 µM, active compounds read high
About 79,000 compounds went through this panel and 15% of them were active in at least one assay; those are over-represented in the sample as a whole.
Binning scheme for growth inhibition: 1: < 10%; 2: ≥ 10% and < 80%; 3: ≥ 80%

Previously resolved entries follow.
CC(O[Si](c1ccccc1)(c1ccccc1)C(C)(C)C)[C@H](NC(=O)OC(C)(C)C)C(=O)O[Si](c1ccccc1)(c1ccccc1)C(C)(C)C (some centres not stated) ... 3
CCN(CC)C(=S)N/N=C(/c1ccccc1)c1ccccn1 ... 2
C[N+]1(C)CCN(CCCN2c3ccccc3Sc3ccccc32)CC1 ... 2
CCCCCCCCC1OC1CCCCCCCC(=O)OCC1CO1 (configuration not stated) ... 1

Please classify: O=C(c1ccc(Oc2ccccc2)cc1)C(C(c1ccccc1)N1CCOCC1)N1CCOCC1 (configuration not stated)
2

Please classify: COc1cccc2c1S(=O)(=O)C(c1ccccc1)=CC2=O
3

Please classify: CCOC(=O)c1c(Br)c(-c2ccc(Br)cc2)c(Br)n1C
1

Please classify: O=C(O)C(O)Cc1ccc(O)cc1 (configuration not stated)
1

Please classify: CC(Br)C(=O)c1ccc(OCc2ccccc2)cc1 (configuration not stated)
3

###

Test: NCI Yeast Anticancer Drug Screen. Data for the mlh1 rad18 strain (AID 175)
Conditions: S. cerevisiae mlh1 rad18 strain growth inhibition; at 50.0 µM; active compounds read high
About 79,000 compounds went through this panel and 15% of them were active in at least one assay; those are over-represented in the sample as a whole.
Mark criterion met for reported growth inhibition of 80% or greater; mark criterion not met for anything smaller.

O=C1CC(=Nc2ccc([N+](=O)[O-])cc2)NN1c1c(Cl)cc(Cl)cc1Cl ... criterion met
C/C=C\c1cc2c(cc1CC#N)OCO2 ... criterion not met
O=C(O)/C=C/CCC1SCC2NC(=O)NC21 (stereo unspecified) ... criterion met
Clc1ccc([I+]c2cccs2)cc1 ... criterion met
OC(CC(CC(O)(C(F)(F)Cl)C(F)(F)Cl)=NNc1ccccc1)(C(F)(F)Cl)C(F)(F)Cl ... criterion met

# input for lookup
Quick check: does NC(=O)NNC(=O)NNC(N)=O have growth inhibition greater than or equal to 80%?
criterion not met

###

growth inhibition listing for selected compounds.
Assay: NCI Yeast Anticancer Drug Screen. Data for the sgs1 mgt1 strain (AID 161);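 further: 0% = growth of cultures given vehicle only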
Conditions: S. cerevisiae sgs1 mgt1 strain, at 5.0 µM (retest, dose inferred, filed as 0.5), active compounds read high
Compounds without any hit were thinned out: in the full panel of roughly 79,000, 15% have a hit.
Could you give me the number in %? Just the number is fine.

The following compounds have reported results that may help.
O=C1Nc2ccccc2C(=O)C1(Cc1ccccc1)C(=O)c1ccccc1 (configuration not stated) ... 11
NC(=O)C12OC3CC(CC(C3)O1)O2 ... -9
CCOC(=O)c1c(SCC#N)n(-c2ccccc2)c(=S)n(-c2ccccc2)c1=O ... -8

Tell me the measured growth inhibition of CCC(=O)Oc1c(Br)c(Br)c(Br)c(Br)c1Br , please.
7

Tell me the measured growth inhibition of COc1ccc(Cc2cncc3c(O)c(OC)ccc23)cc1O , please.
-13

Tell me the measured growth inhibition of C#CC[N+](CC)(CC)CCNC(=O)CCCCCCCCCCCCCCC , please.
98

###

Assay: NCI Yeast Anticancer Drug Screen. Data for the bub3 strain (AID 167)
Settings: S. cerevisiae bub3 mutant strain, at 50.0 µM (retest, dose inferred, filed as 5.0), active compounds read high
About 79,000 compounds went through this panel and 15% of them were active in at least one assay; those are over-represented in the sample as a whole.
readout_type: growth inhibition (%)
Could you give me the number in %? Just the number is fine.

CC1(C)CC(=O)C2=C(C1)OC1=C(CC(C)(C)CC1=O)C2c1ccccc1[N+](=O)[O-] (stereo not drawn) ... 5
COC1C(N)C(OC2C(Oc3cccc4c(O)c5c(=O)oc6ccc(C)c7c(=O)oc(c34)c5c67)OC(C)C(O)C2(C)O)OC(C)C1O (stereo not drawn) ... 30
O=C(c1ccc(Oc2ccccc2)cc1)C(C(c1ccccc1)N1CCOCC1)N1CCOCC1 (stereo not drawn) ... 61

Tell me the measured growth inhibition of CCC(O)C(O)(c1ccccc1)c1nc2ccccc2s1 (stereo not drawn) , please.
-12

Tell me the measured growth inhibition of Clc1ccc(C2=CC(c3ccccc3)N3C(=N[C@H]4CCCC[C@@H]43)N2)cc1 (stereo partly drawn) , please.
19

Tell me the measured growth inhibition of COC(=O)C1=C(CS(=O)c2ccccc2[N+](=O)[O-])ON(C)C1c1ccccc1 (stereo not drawn) , please.
45

Tell me the measured growth inhibition of O=C1c2ccccc2C(=O)c2cc(N3C(=O)C=CC3=O)ccc21 , please.
97

Tell me the measured growth inhibition of CCCCCCCCCCNCCSSCCNC(C)=O , please.
98

###

Test: NCI Yeast Anticancer Drug Screen. Data for the mlh1 rad18 strain (AID 175)
Conditions: S. cerevisiae mlh1 rad18 strain growth inhibition; at 50.0 µM
Compounds without any hit were thinned out: in the full panel of roughly 79,000, 15% have a hit. Activity calls are given as the source filed them. Cut-off read from the data, not from the text of the source: active = growth inhibition above about 70%; inactive = the rest.
Your reply should match one of these outcome classes. True = active, False = inactive

Previously resolved entries follow.
CCCCCC/C=C\C=O ... False
O=C(OCc1ccccc1)c1ccccc1Cl ... True
CCC(C)NC(=S)N/N=C(\C)c1ccccn1 (stereo not drawn) ... True

How did this test come out for CC(C)C[C@H](NC(=O)[C@H](Cc1ccccc1)NC(=O)c1cnccn1)B(O)O ?
False

How did this test come out for C=C(C#N)C(=O)OCC(CC)CC.C=C(C#N)C(=O)OCC(CC)CC.CS(C)=O.CS(C)=O.Nc1c(N=Nc2ccc(-c3ccc(N=Nc4cc(S(=O)(=O)[O-])c5ccccc5c4N)cc3)cc2)cc(S(=O)(=O)[O-])c2ccccc12.[Pt+2] ?
True

How did this test come out for C/C=C/C=N/N(c1nnc(-c2ccccc2)c(-c2ccccc2)n1)S(=O)(=O)c1ccc(C)cc1 ?
True

How did this test come out for O=C1C(=O)c2ccccc2C=C1C1CCCCC1 ?
True

How did this test come out for COc1ccc(C(c2ccc(OC)cc2)c2ccccc2C(=O)O)cc1 ?
False

How did this test come out for CCCCc1ccc(Nc2nc(N)c3[nH]cnc3n2)cc1 ?
True

How did this test come out for O=C(O)c1ccccc1/C=C1\Cc2ccc3c(c2C1=O)CCCC3 ?
True

How did this test come out for COc1ccc2nc3cc(Cl)ccc3c(NCCC[N+](C)(C)CCCCCCCCCCCCCCCC[N+](C)(C)CCCNc3c4ccc(Cl)cc4nc4ccc(OC)cc34)c2c1 ?
True

How did this test come out for CC(C)c1cc(C(=O)[O-])c(O)c(C(C)C)c1.CC(C)c1cc(C(=O)[O-])c(O)c(C(C)C)c1.CC(C)c1cc(C(=O)[O-])c(O)c(C(C)C)c1.CC(C)c1cc(C(=O)[O-])c(O)c(C(C)C)c1.CC(C)c1cc(C(=O)[O-])c(O)c(C(C)C)c1.CC(C)c1cc(C(=O)[O-])c(O)c(C(C)C)c1.[Cu+2].[Mn+2].[Mn+2] ?
True

How did this test come out for CCCCCCCCCCCCCCCC1=NCCN1C ?
True

How did this test come out for CCC(O)C(O)(c1ccccc1)c1nc2ccccc2s1 (stereo not drawn) ?
False

How did this test come out for CCCCNC(=O)OCCN=C1c2ccccc2C(Br)C(Br)c2ccccc21 (stereo not drawn) ?
True

How did this test come out for Nc1ccccc1CC(c1c[nH]c2ccccc12)c1c[nH]c2ccccc12 ?
True

How did this test come out for O=C(Nc1ccc(Cl)cc1)Nc1cc(Cl)ccc1O ?
True

How did this test come out for c1cc[c]([Sn]([S]c2cccc3cccnc23)([c]2ccccc2)[c]2ccccc2)cc1 ?
True

###

growth inhibition listing for selected compounds.
Experiment: NCI Yeast Anticancer Drug Screen. Data for the sgs1 mgt1 strain (AID 161);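 further: 0% = growth of cultures given vehicle only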
Conditions: S. cerevisiae sgs1 mgt1 strain, at 5.0 µM (retest, dose inferred, filed as 0.5), active compounds read high
Compounds without any hit were thinned out: in the full panel of roughly 79,000, 15% have a hit.
Could you give me the number in %? Just the number is fine.

The following compounds have reported results that may help.
CCCCCCCCCCCCSC1=C(N)C(=O)c2ccccc2C1=O ... 8
CC(C)(C)Oc1ccc(CC(NC(=O)OCC2c3ccccc3-c3ccccc32)C(=O)O)cc1 (stereo unspecified) ... -9
O=C(NNc1ncccn1)c1ccc(C(=O)NNc2ncccn2)cc1 ... -3
O=C1C(=O)C2CC3(CC1N2Cc1ccccc1)OCCO3 ... 36
COc1ccc2nc3cc(Cl)ccc3c(Nc3ccc(S(N)(=O)=O)cc3)c2c1 ... 0
C=C(Cl)C(=NC(C)(C)C)Nc1ccccc1Cl ... 16
CS(=O)(=O)n1c(C(O)c2ccccc2)nc2ccccc21 (stereo unspecified) ... 2
O=C(c1ccc([N+](=O)[O-])cc1)C(Br)C(Br)c1ccnc2ccccc12 (stereo unspecified) ... 21

Tell me the measured growth inhibition of O=C1C=C(c2cccc(-c3ccccc3)c2)CCC1 , please.
-5

Tell me the measured growth inhibition of FC(F)(F)c1ccc(-c2ccc(OCCN3CCCC3)cc2)cc1 , please.
25

Tell me the measured growth inhibition of [Br][Pt+2][Br].[NH-]c1cccc(I)c1.[NH-]c1cccc(I)c1 , please.
8
